Conditions: 20.0 µM
observed_property: relative solubility at 20 uM

Record relative solubility at 20 uM for all entries; do not skip any.
1. CO[C@H](C)C(=O)Nc1cnccc1C (stereo in doubt)
2. CCOc1ccccc1OC1CCN(C(=O)c2cc(=O)[nH]c3cc(F)ccc23)C1 (stereo not drawn)
3. C=CC(=O)N(c1ccc(C(C)(C)C)cc1)C(C(=O)Nc1ccc(OC)cc1)c1cccnc1 (stereo not drawn)
4. O=C(Nc1cnccc1CO)[C@@H]1COc2ccc(Cl)cc21 (stereo in doubt)
5. Cc1ccnn1CC(=O)NCC(NC(=O)C(C)C#N)c1ccccc1 (stereo not drawn)

[1.01, 1, 0.95, 1.01, 0.99]

State the recorded relative solubility at 20 uM for every item in the following list.
1. O=C(Nc1cccnc1)c1cccc(Cl)c1
2. O=C(Nc1cnccc1CO)C1CCOc2ccc(Cl)cc21 (stereo not drawn)
3. N#Cc1ccnc(CNC(=O)Cc2c[nH]c3ncccc23)c1
4. O=C(Cc1cc(Cl)cc(Cl)c1)Nc1nncs1
5. Cc1ccncc1NC(=O)CN1CCOCC1

1. 1
2. 0.94
3. 0.97
4. 0.84
5. 1

Go through the list and state relative solubility at 20 uM for each entry.
1. O=C(Nc1ccnnc1)NC(Cc1ccccc1)C(=O)N1CCCC1 (stereo not drawn)
2. Cc1ccncc1NC(=O)[C@@H]1C[C@H]1CF (stereo in doubt)
3. C=CC(=O)N(c1ccc(C2(C)CC2)cc1)C(C(=O)Nc1cccc(CC)c1)c1cccnc1 (stereo not drawn)
4. CNC(=O)OC1CCN(C(=O)c2ccccc2)CC1

[1, 1, 0.86, 1]
